Source: the supplement of paper PMC3334620

- Tested target: Stb4 (UniProt P50104)
- Sequence (P50104 whole entry): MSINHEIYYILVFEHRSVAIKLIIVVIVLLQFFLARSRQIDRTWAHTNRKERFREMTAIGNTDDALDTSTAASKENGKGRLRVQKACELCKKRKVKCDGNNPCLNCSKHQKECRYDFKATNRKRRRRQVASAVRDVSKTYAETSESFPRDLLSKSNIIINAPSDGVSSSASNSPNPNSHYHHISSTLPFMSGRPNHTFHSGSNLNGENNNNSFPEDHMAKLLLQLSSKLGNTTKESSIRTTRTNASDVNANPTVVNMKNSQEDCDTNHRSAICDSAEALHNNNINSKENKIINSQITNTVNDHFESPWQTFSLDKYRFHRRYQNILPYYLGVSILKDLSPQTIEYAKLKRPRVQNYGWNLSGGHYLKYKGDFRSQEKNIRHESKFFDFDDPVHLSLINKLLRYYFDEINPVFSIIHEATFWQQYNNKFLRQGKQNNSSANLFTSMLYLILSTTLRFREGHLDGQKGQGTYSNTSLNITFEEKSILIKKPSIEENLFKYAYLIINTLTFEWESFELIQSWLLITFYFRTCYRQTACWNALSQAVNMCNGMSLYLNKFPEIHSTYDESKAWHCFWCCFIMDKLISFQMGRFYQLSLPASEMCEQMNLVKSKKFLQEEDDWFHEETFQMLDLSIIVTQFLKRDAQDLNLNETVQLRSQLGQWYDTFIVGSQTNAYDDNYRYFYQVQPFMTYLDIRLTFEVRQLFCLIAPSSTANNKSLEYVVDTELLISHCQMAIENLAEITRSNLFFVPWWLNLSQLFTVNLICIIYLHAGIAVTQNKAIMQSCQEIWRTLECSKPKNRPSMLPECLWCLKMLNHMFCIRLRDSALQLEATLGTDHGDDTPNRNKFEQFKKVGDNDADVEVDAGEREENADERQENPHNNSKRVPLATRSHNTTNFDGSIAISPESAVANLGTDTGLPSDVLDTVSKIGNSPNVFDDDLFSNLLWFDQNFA
- Test summary: PBM E-score (8-mer binding enrichment) (E-score (-0.5 to 0.5)); higher = stronger / more preferred TF binding
- Setup conditions: protein concentration: 200 nM; construct: GST-DNA-binding domain
In all, about 33,000 sequences were measured (“E-score (-0.5 to 0.5)”: median about -0.056, highest 2% from about 0.38 on). The sample as a whole holds a higher share of the highest values than the screen did.
Quick rule for you: PBM E-score at 0.1 or higher means yes (1), lower means no (0).

CACTGTGA ... no (0)
ATGCAAAT ... no (0)
CTACTGAC ... no (0)
TATTTTGA ... no (0)
AAGAGTGG ... no (0)
GAGCCGTA ... yes (1)
CTACTTGC ... yes (1)
GGTCGGAC ... yes (1)
GGTCGGGA ... yes (1)
CCATTGAC ... no (0)

input: Does the reported PBM E-score for "CGTCGGGA" fall at or above the 0.1 mark?
output: yes (1)

input: Tell me whether PBM E-score is at least 0.1 here: "CTGTGGGA"
output: no (0)

input: Reported PBM E-score at or above 0.1? "CGTCGGAA"
output: yes (1)

input: Given the entry "ACATTGCT" , answer whether its PBM E-score meets or surpasses 0.1.
output: no (0)

input: Threshold query (PBM E-score >= 0.1) on "AAAGAGCT"
output: no (0)

input: Does the reported PBM E-score for "CGTCGGAC" fall at or above the 0.1 mark?
output: yes (1)

input: API: above_or_equal(metric=PBM E-score, cutoff=0.1) for item "TAGAGATA"
output: no (0)

input: API: above_or_equal(metric=PBM E-score, cutoff=0.1) for item "CGTCGGAG"
output: yes (1)

input: Answer whether PBM E-score of "AACTTGCC" is greater than or equal to 0.1.
output: yes (1)

input: Assess whether reported PBM E-score for "AGTCGGGA" sits at 0.1 or higher.
output: yes (1)

input: Would you say "GTCTGCTA" shows PBM E-score at minimum 0.1?
output: no (0)

* * *

- Tested target: Stb4 (UniProt P50104)
- Test summary: PBM E-score (8-mer binding enrichment) (E-score (-0.5 to 0.5)); higher = stronger / more preferred TF binding
- Setup conditions: protein concentration: 200 nM; construct: GST-DNA-binding domain
In all, about 33,000 sequences were measured (“E-score (-0.5 to 0.5)”: median about -0.056, highest 2% from about 0.38 on). Shown is part of a subset that was picked to be rich in the highest values.
Measured quantity: PBM E-score
Answers are plain numbers.

Use the examples below as a reference point.
AGATCTGG ... -0.188
AGATAGTG ... -0.0913
GGTGCCTA ... -0.0355
ACTATCGG ... 0.236
AGTGCCGC ... 0.123

Would you be so kind as to report PBM E-score for each listed record?
1. GATTAGCA
2. TATTCGGA
3. CTATCCGC
4. CAATTCTA
5. CACCGAGG

output:
1. -0.177
2. 0.426
3. 0.396
4. -0.196
5. 0.308

Would you be so kind as to report PBM E-score for each listed record?
1. CCTCCGAC
2. CATACGGG
3. AGCCGCGG
4. TCTCCAAA
5. CGCAAGAA
6. GAGGAATC
7. TGATCGAA
8. GCACGGAA

output:
[0.209, 0.152, 0.315, -0.144, 0.0756, -0.07, -0.125, 0.327]

* * *

- Tested target: Stb4 (UniProt P50104)
- Test summary: PBM E-score (8-mer binding enrichment) (E-score (-0.5 to 0.5)); higher = stronger / more preferred TF binding
- Setup conditions: protein concentration: 200 nM; construct: GST-DNA-binding domain
The full ranking holds about 33,000 sequences; the median of “E-score (-0.5 to 0.5)” is about -0.056, and the highest 2% start at about 0.38. What follows is part of a selection rich in the highest values, with near analogues and random picks from the rest.
Measured quantity: PBM E-score
Answers are plain numbers.

# count of solved cases: 5
CACCCGAA ... 0.436
CGCCTCCC ... -0.0433
AGCTAAGA ... -0.055
AGTTCCAA ... 0.012
CAATAGGG ... -0.163

# return PBM E-score for each item in the list
1. ACCGAGGG
2. CTCGGGAC
3. CAGCCAAA
4. ATTCGGGA
5. CACCCGGC
6. CCCGGGAC
7. GCTTGCGA
8. ATCGGGAA

output:
1. 0.27
2. 0.45
3. -0.0614
4. 0.415
5. 0.277
6. 0.387
7. -0.104
8. 0.412

For every item below, please supply its PBM E-score.
1. ACTTTCGC
2. CAGCCGAC
3. CATCCGCC
4. CGCGAGGC

output:
-0.239
0.311
0.4
0.0155

* * *

- Tested target: Stb4 (UniProt P50104)
- Test summary: PBM E-score (8-mer binding enrichment) (E-score (-0.5 to 0.5)); higher = stronger / more preferred TF binding
- Setup conditions: protein concentration: 200 nM; construct: GST-DNA-binding domain
In all, about 33,000 sequences were measured (“E-score (-0.5 to 0.5)”: median about -0.056, highest 2% from about 0.38 on). Shown is part of a subset that was picked to be rich in the highest values.
Assign PBM E-score to each entry below.
Numbers only.

Take a look at these entries with their results.
CGTCCGGC ... 0.253
GGGGAATA ... -0.0405
AATCCCGA ... 0.431
CATTCTCA ... 0.0317
CGGGAATA ... 0.417
CCCGGAGA ... 0.318
GCCGGACA ... 0.154
CATCCGTA ... 0.329
ATATCCCG ... 0.306
CATCCCGG ... 0.342

// batch mode: one PBM E-score value per listed entry
1. GTCTAGAC
2. CGGTCGGC
3. CCGGGATC
4. AGTGATAG

output:
1. -0.342
2. 0.318
3. 0.384
4. -0.33

Okay, here is my list. What is PBM E-score for each of these?
1. CTATCCAA
2. CCCGGATA
3. CTATCCCA
4. CGGGGATC
5. AAAGTTAG

output:
1. -0.268
2. 0.429
3. -0.135
4. 0.279
5. -0.00674

* * *

Kindly supply the reported PBM E-score values for the records listed here.
- Tested target: Stb4 (UniProt P50104)
- Test summary: PBM E-score (8-mer binding enrichment) (E-score (-0.5 to 0.5)); higher = stronger / more preferred TF binding
- Setup conditions: protein concentration: 200 nM; construct: GST-DNA-binding domain
Whole data set: some 33,000 sequences, median “E-score (-0.5 to 0.5)” near -0.056, cut for the highest 2% near 0.38. The list comes from a sample in which the highest values are over-represented; it also holds close analogues and randomly drawn sequences.
Answers are plain numbers.

Check out these entries, answers already filled in.
CACGGATG ... 0.338
GACGGATC ... 0.265
AGTCTCGC ... -0.0759

For every listed record, write down its PBM E-score.
1. AACGGATG
2. CCGAACGC
3. AGAAGTGC
4. CACGGATC
5. AGCCCGTC
6. GATTCGGA
7. CCGAGCAC
8. CGCGAGAC

output:
0.304
0.415
-0.122
0.35
-0.0989
0.43
0.413
-0.0463

Return reported PBM E-score values for all items listed beneath this line.
1. AGTTTGAG
2. ATTACCCC
3. AGTCTCGG
4. CGGAACTA

output:
1: -0.092; 2: 0.133; 3: 0.39; 4: 0.449

Give PBM E-score for each of the items listed below.
1. GTCGAGAA
2. GACGGAGA
3. ACCGAGAC
4. TACGGAGA

output:
-0.277
0.187
0.357
0.0409

// input: 6 sequences below; output: PBM E-score for each
1. GCTTGAGA
2. TCGAGCAA
3. CCCGAGAC
4. TACGGATA
5. AATTCGTA
6. CCCCGCTC

output:
1: -0.312; 2: -0.141; 3: 0.412; 4: 0.385; 5: 0.0882; 6: -0.0289

* * *

I'd be grateful if you could share measured PBM E-score for these entries.
- Tested target: Stb4 (UniProt P50104)
- Test summary: PBM E-score (8-mer binding enrichment) (E-score (-0.5 to 0.5)); higher = stronger / more preferred TF binding
- Setup conditions: protein concentration: 200 nM; construct: GST-DNA-binding domain
The full ranking holds about 33,000 sequences; the median of “E-score (-0.5 to 0.5)” is about -0.056, and the highest 2% start at about 0.38. The sample as a whole holds a higher share of the highest values than the screen did.
One number for each entry.

ATTGAGAA ... -0.0694
GGTCCGAA ... 0.416
ACCTGCAC ... -0.0938
ACGAAATC ... -0.0845
CCGAAGAC ... 0.374

Take each entry in turn and give its PBM E-score.
1. ATTAGCCG
2. ATGGGCGC
3. CTAAATCC
4. GCGCGACC

output:
[0.4, -0.158, 0.205, -0.0286]

# batch size: 2; output PBM E-score per entry
1. CACGGAGA
2. CTGAAATC

output:
1. 0.14
2. -0.0865

# per-item lookup of PBM E-score; items listed below
1. CGGGTTTC
2. GGCGTCAC
3. CGGATATA
4. CTGCTCGC
5. ACGATTCC
6. GAAACAGA
7. CCCTCGCA
8. CCGAAATC

output:
1: 0.277; 2: -0.0997; 3: 0.452; 4: -0.0171; 5: 0.06; 6: -0.0644; 7: -0.0413; 8: 0.405

Please give PBM E-score, item by item, for the list that follows.
1. AAGATTTA
2. CTCGGAGC

output:
1. 0.0925
2. 0.395
